system: Faecalibacterium prausnitzii EB-FPDK11 strain; test: MIC, liquid medium microdilution (CLSI), EB-FPDK11; format: cell-based; settings: text summary of Table 4
MEASUREMENT_LABEL: resistance or susceptibility of the EB-FPDK11 strain to the agent (in words)

| MOLECULE | REPORTED |
| --- | --- |
| O=C(N[C@H](CO)[C@H](O)c1ccc([N+](=O)[O-])cc1)C(Cl)Cl [CHL, chloramphenicol] | susceptibility |
| C[C@@H](O)[C@H]1C(=O)N2C(C(=O)O)=C(S[C@@H]3CN[C@H](C(=O)N(C)C)C3)[C@H](C)[C@H]12 [MEM, meropenem] | resistance |
| CO/N=C(\C(=O)N[C@@H]1C(=O)N2C(C(=O)O)=CCS[C@H]12)c1csc(N)n1 [CTZ, ceftizoxime] | resistance |
| Cc1ncc([N+](=O)[O-])n1CCO [MTZ, metronidazole] | susceptibility |
